EXPERIMENT: Half life in Swiss CD-1 mouse at 3 mg/kg, po administered as single dose by LC-MS analysis
Format: ADME, organism-based
CONDITION_SET: in vivo
PROPERTY: half-life (h)
The reply should be a number in h, with the unit left off.

The reported value for C[C@H](C#Cc1cccc(C(=O)NCCC(c2ccc(F)cc2)c2ccc(F)cc2)c1)N(O)C(N)=O in terms of half-life is 1.3

###

EXPERIMENT: Metabolic stability in rat liver microsomes assessed as compound remaining after 60 mins
Type: ADME, Microsome
CONDITION_SET: read-out: Stabilty
remaining at 1 h vs 30%: less than gives 1.0; not less than gives 0.0.

# MOLECULE, DISCRETE_LABEL
measured = [
    ("C[C@H](C#Cc1cccc(C(=O)NCCC(c2ccc(F)cc2)c2ccc(F)cc2)c1)N(O)C(N)=O", 0.0),
    ("CC(C#Cc1cccc(C(=O)NCCC(c2ccccc2)c2ccccc2)c1)N(O)C(N)=O (stereo not given)", 1.0),
    ("C[C@H](C#Cc1cccc(C(=O)NCCN(c2ccccc2)c2ccccc2)c1)N(O)C(N)=O", 1.0),
    ("C[C@H](C#Cc1cccc(C(=O)NCCC(c2ccc(F)cc2)c2ccc(OC(F)(F)F)cc2)c1)N(O)C(N)=O (stereo not given in full)", 0.0),
]

q: Here's an entry: C[C@H](C#Cc1cccc(C(=O)NCCC(c2ccc(F)cc2)c2ccc(C(F)(F)F)cc2)c1)N(O)C(N)=O (stereo not given in full) . Is its remaining at 1 h below 30%?
a: 0.0

###

Measured solubility by item
EXPERIMENT: Solubility in pH 7.4 DPBS buffer
Assay type: physicochemical
The reply should be a number in µM, with the unit left off.

The reported value for C[C@H](C#Cc1cccc(C(=O)NCCC(c2ccc(F)cc2)c2ccc(C(F)(F)F)cc2)c1)N(O)C(N)=O (stereo partly specified) in terms of solubility is 3

The reported value for C[C@H](C#Cc1ccc(Cc2ccc(F)cc2)s1)N(O)C(N)=O in terms of solubility is 30

The reported value for C[C@H](C#Cc1cccc(C(=O)NCCC(c2ccc(F)cc2)c2ccc(F)cc2)c1)N(O)C(N)=O in terms of solubility is 3

The reported value for CC(C#Cc1cccc(C(=O)NCCC(c2ccccc2)c2ccccc2)c1)N(O)C(N)=O (stereo unspecified) in terms of solubility is 3

The reported value for C[C@H](C#Cc1cccc(C(=O)NCCC(c2ccc(F)cc2)c2ccc(OC(F)(F)F)cc2)c1)N(O)C(N)=O (stereo partly specified) in terms of solubility is 10

The reported value for C[C@H](C#Cc1cccc(C(=O)NCCN(c2ccccc2)c2ccccc2)c1)N(O)C(N)=O in terms of solubility is 3

###

TESTED_TARGET: Polyunsaturated fatty acid 5-lipoxygenase (Homo sapiens)
Sequence (P09917 whole entry): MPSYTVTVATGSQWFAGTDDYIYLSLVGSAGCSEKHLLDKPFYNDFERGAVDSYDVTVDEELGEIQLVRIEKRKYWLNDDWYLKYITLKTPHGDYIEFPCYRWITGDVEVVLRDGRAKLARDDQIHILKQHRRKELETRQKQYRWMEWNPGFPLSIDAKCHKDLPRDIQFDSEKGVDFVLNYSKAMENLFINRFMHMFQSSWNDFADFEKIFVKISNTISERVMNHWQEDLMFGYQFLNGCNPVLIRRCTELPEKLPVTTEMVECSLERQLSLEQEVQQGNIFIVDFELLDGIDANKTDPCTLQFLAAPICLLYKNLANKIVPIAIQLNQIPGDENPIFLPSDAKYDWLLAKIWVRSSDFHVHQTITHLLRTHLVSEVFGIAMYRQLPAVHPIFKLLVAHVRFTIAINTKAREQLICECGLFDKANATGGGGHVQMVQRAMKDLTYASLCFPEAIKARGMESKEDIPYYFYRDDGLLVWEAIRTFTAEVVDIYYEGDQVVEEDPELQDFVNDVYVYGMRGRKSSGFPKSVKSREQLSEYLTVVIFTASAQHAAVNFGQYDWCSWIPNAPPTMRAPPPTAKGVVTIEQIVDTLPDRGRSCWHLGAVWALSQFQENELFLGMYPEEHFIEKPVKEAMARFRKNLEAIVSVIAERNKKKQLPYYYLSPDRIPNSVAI
EXPERIMENT: Inhibition of 5-LOX in human PMNL assessed as reduction in 5-HETE and LTB4 formation pre-incubated for 15 mins before addition of AA and A23187 and measured after 10 mins by HPLC/UV assay
PROPERTY: pIC50
pIC50 here is simply -log10 of the concentration when that concentration is written in mol/L.

The reported value for C[C@H](C#Cc1cccc(C(=O)NCCC(c2ccc(F)cc2)c2ccc(F)cc2)c1)N(O)C(N)=O in terms of pIC50 is 6.68
